Cited source for all entries: the supplement of paper PMC7877785

Assay: self-splicing fitness, log relative to wild type (ln ratio); higher = more splicing; Tetrahymena group I intron in knt gene, E. coli kanamycin selection, DiMSum; sequences stand for … in CUCUCU…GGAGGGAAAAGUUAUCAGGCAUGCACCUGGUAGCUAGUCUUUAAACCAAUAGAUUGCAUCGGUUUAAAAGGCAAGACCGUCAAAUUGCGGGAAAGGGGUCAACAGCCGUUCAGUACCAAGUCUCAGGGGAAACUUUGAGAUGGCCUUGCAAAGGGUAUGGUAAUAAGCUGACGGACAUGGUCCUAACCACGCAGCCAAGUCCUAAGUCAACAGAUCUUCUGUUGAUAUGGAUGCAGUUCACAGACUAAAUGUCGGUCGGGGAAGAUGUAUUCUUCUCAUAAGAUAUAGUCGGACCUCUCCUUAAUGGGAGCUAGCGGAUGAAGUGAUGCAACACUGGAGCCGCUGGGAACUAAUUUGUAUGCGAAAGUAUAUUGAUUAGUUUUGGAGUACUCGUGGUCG;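 note: selection with 25 µg/mL kanamycin versus none on LB agar overnight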
Settings: 37 °C
Parameter threshold = -2. Response is Yes when self-splicing fitness (ln) meets or exceeds it, else No.

[[record]]
record_sequence = "AGGAAGCAAUAUUACGCGAA"
label_value = "Yes"

[[record]]
record_sequence = "GAUGAGCAAUAUUACGUGGC"
label_value = "No"

[[record]]
record_sequence = "AGGUAGCAAUAUUACGGAGC"
label_value = "No"

[[record]]
record_sequence = "AGGUAGCAAUAUUACGCAGU"
label_value = "Yes"

[[record]]
record_sequence = "UUGAAGCAAUAUUACGAGUU"
label_value = "Yes"

[[record]]
record_sequence = "UCGUAGCAAUAUUACGACAU"
label_value = "No"

[[record]]
record_sequence = "AUAAAGCAAUAUUACGUCAA"
label_value = "Yes"

[[record]]
record_sequence = "CUGAAGCAAUAUUACGUUCU"
label_value = "No"

[[record]]
record_sequence = "UUUAAGCAAUAUUACGGUUC"
label_value = "No"

[[record]]
record_sequence = "CUUUAGCAAUAUUACGGAUU"
label_value = "Yes"

[[record]]
record_sequence = "CACUAGCAAUAUUACGUCGG"
label_value = "Yes"

[[record]]
record_sequence = "AGAAAGCAAUAUUACGGAGA"
label_value = "No"

[[record]]
record_sequence = "UCGCAGCAAUAUUACGUCGU"
label_value = "Yes"

[[record]]
record_sequence = "GGUUAGCAAUAUUACGCGUG"
label_value = "Yes"

[[record]]
record_sequence = "UCGCAGCAAUAUUACGGGCU"
label_value = "No"

[[record]]
record_sequence = "UGAAAGCAAUAUUACGUGCG"
label_value = "Yes"


====

Assay: self-splicing fitness, log relative to wild type (ln ratio); higher = more splicing; Tetrahymena group I intron in knt gene, E. coli kanamycin selection, DiMSum; sequences stand for … in CUCUCU…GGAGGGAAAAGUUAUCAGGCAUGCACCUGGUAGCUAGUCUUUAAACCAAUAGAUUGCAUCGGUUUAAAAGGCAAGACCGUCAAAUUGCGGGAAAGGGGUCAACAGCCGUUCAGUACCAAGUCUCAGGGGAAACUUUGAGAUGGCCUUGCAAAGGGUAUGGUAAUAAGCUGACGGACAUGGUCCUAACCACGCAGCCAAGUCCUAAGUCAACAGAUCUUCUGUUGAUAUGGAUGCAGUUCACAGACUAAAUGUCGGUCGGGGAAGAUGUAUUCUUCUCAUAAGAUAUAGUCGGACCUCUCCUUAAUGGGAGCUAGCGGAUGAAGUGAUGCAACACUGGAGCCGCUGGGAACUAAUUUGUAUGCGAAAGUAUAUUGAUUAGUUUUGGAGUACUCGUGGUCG
Conditions: 30 °C
Parameter threshold = -3. Response is t when self-splicing fitness (ln) meets or exceeds it, else f.

[[record]]
record_sequence = "ACCCAGCAAUAUUACGCGUG"
label_value = "f"

[[record]]
record_sequence = "UUGGAGCAAUAUUACGCAGU"
label_value = "t"

[[record]]
record_sequence = "UUCUAGCAAUAUUACGAAAU"
label_value = "t"

[[record]]
record_sequence = "CGGGAGCAAUAUUACGUUAG"
label_value = "f"

[[record]]
record_sequence = "AUGUAGCAAUAUUACGGACG"
label_value = "f"

[[record]]
record_sequence = "UGAGAGCAAUAUUACGUCGG"
label_value = "t"

[[record]]
record_sequence = "GGUUAGCAAUAUUACGUUCC"
label_value = "t"

[[record]]
record_sequence = "CAUGAGCAAUAUUACGCACA"
label_value = "t"

[[record]]
record_sequence = "CCGGAGCAAUAUUACGUCAU"
label_value = "f"

[[record]]
record_sequence = "CUAAAGCAAUAUUACGGGAG"
label_value = "t"

[[record]]
record_sequence = "GCGCAGCAAUAUUACGAUCA"
label_value = "t"

[[record]]
record_sequence = "AGACAGCAAUAUUACGAACU"
label_value = "t"

[[record]]
record_sequence = "CUAAAGCAAUAUUACGUAGU"
label_value = "f"

[[record]]
record_sequence = "AGCGAGCAAUAUUACGAUUG"
label_value = "f"

[[record]]
record_sequence = "UGAAAGCAAUAUUACGUGUA"
label_value = "t"

